Test system: Salmonella typhimurium
Assay: Antimicrobial activity test (growth, OD600)
Type: cell-based
Conditions: Salmonella enterica, read-out: Bacterial Viability (IC50)
value kind: IC50

1. O=C(/C=C/c1csnn1)c1cccc2ccccc12 > 100 µM

Input line: Given the compound O=C(/C=C/c1csnn1)c1cc(Cl)ccc1Cl , write its reported IC50.
Output line: > 100 µM

Input line: Find the measured IC50 of O=C(/C=C/c1csnn1)c1ccccc1Cl and report it.
Output line: > 100 µM

----------
System: E. coli BW25113ΔtolC
Test: Antimicrobial activity test (growth, OD600)
Settings: read-out: Viability IC50, BW25113ΔtolC; E. coli strain missing TolC; listed as HSI#5
value kind: IC50

Input line: Tell us which IC50 value is on record for O=C(/C=C/c1csnn1)c1cc(Cl)ccc1Cl [HSI#05]
Output line: < 14 µM

----------
Quick list: IC50 per entry.
System: E. coli BW25113::imp-2413+
Experiment: Antimicrobial activity test (growth, OD600)
Conditions: Escherichia coli, BW25113, read-out: Viability IC50, BW25113::imp-2413+
Only the number, expressed in µM, is required.

For orientation, consider the following solved cases.
1. O=C(/C=C/c1csnn1)c1cc(Cl)ccc1Cl 10.3
2. O=C(O)c1cnc2ccc(Cl)cc2c1O 41.4
3. O=C(O)c1cnc2cc(Cl)ccc2c1O 36.2

Input line: Please indicate recorded IC50 of O=C(/C=C/c1csnn1)c1cccc2ccccc12 measured with E. coli BW25113::imp-2413+.
Output line: 12.2

Input line: Name the value of IC50 reported for O=C(/C=C/c1csnn1)c1ccccc1Cl when tested on E. coli BW25113::imp-2413+.
Output line: 23.2

----------
Entries and their IC50 values follow.
Test system: Serratia marcescens
Experiment: Antimicrobial activity test (growth, OD600)
Assay type: cell-based
Conditions: read-out: Bacterial Viability (IC50)

1. O=C(/C=C/c1csnn1)c1ccccc1Cl > 100 µM
2. O=C(/C=C/c1csnn1)c1cc(Cl)ccc1Cl > 100 µM

Consider the additional compound presented here.
Input line: For O=C(/C=C/c1csnn1)c1cccc2ccccc12 , write its IC50.
Output line: > 100 µM

----------
Tested on: Morganella morganii
Assay: Antimicrobial activity test (growth, OD600)
Format: cell-based
Settings: read-out: Bacterial Viability (IC50)
Entries and their IC50 values follow.

1. O=C(/C=C/c1csnn1)c1ccccc1Cl > 100 µM

Input line: Hello, please tell me recorded IC50 for this one: O=C(/C=C/c1csnn1)c1cc(Cl)ccc1Cl
Output line: > 100 µM

Input line: Hello, please tell me recorded IC50 for this one: O=C(/C=C/c1csnn1)c1cccc2ccccc12
Output line: > 100 µM

----------
Test: Turbidimetric kinetic aqueous solubility assay
Format: physicochemical
Details: pH 7.1, aqueous buffer, kinetic from dmso stock, selection threshold, Figure 1B; read-out: Solubility
value kind: solubility at 1 h

These recorded examples may help you get a feel for the data.
1. O=C(/C=C/c1csnn1)c1cccc2ccccc12 > 15 µM
2. O=C(/C=C/c1csnn1)c1cc(Cl)ccc1Cl > 15 µM

Read the next record carefully.
Input line: Tell us which solubility at 1 h value is on record for O=C(/C=C/c1csnn1)c1ccccc1Cl
Output line: > 15 µM

----------
Below is a list of entries, each paired with its recorded Toxicity of Mammalian Cells (HEK293T) LD50 value.
Tested on: HEK293T cells
Conditions: human, 24 h
Hi! Could you send only the number? It should be in µM, unit omitted.

Look over these answered cases.
molecule	measurement
O=C(/C=C/c1csnn1)c1ccccc1Cl [HSI#01]	6.7
O=C(/C=C/c1csnn1)c1cccc2ccccc12 [HSI#10]	6.7
O=C(O)c1cnc2cc(Cl)ccc2c1O [HSI#14]	60.2
O=C(O)c1cnc2ccc(Cl)cc2c1O [HSI#12]	60.2
CN(C)c1c(C(=O)O)cnc2ccccc12 [HSI#07]	60.2

Shift focus to the following entry.
Input line: Could you please provide reported Toxicity of Mammalian Cells (HEK293T) LD50 for O=C(/C=C/c1csnn1)c1cc(Cl)ccc1Cl [HSI#05] ? Thanks!
Output line: 6.7
